Numbers sourced from patent US20250387400A1.

Target: catalytic kinase (JH1) domain of human JAK3 (Homo sapiens, UniProt P52333)
Construct: Catalytic activities of recombinant JAK2, JAK3 and TYK2 kinase domain
Sequence (P52333 822-1111 limits assumed): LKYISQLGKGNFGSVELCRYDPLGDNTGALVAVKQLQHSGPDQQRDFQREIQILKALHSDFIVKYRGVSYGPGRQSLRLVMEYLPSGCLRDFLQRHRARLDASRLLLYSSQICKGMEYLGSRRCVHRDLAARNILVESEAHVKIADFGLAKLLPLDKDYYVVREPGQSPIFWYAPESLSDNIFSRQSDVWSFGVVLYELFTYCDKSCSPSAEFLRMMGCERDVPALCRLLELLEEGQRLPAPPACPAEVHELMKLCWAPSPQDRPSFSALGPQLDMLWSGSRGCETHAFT
Experiment: ADP-Glo kinase assay, JAK3 kinase domain
Format: biochemical
Settings: 0.3 nM recombinant JAK3 kinase domain, 50 μM JAK3-974 peptide, 4 μM ATP, 100 minutes; read-out: JAK3 biochem IC50 (nM) Mean
Description: As summarized in Table 3 below, compounds of the disclosure were assessed for their ability to inhibit TYK2, JAK1, JAK2, and JAK3 activity. The kinase activity of recombinantly generated catalytic kinase (also known as JH1) domain of human JAK1, JAK2, JAK3 and TYK2 were evaluated in a plate-based assay using the ADP-Glo™ Kinase Assay platform. […]
TEST READOUT: IC50

Use these answered entries as a reference point.
[
  {
    "COMPOUND": "COc1cc(-c2cc3c(N4CC5CCC(C4)N5C4COC4)ccnn3c2)cnn1",
    "IC50": "> 10000 nM"
  },
  {
    "COMPOUND": "CO[C@H]1C[C@H](N2C3CCC2CN(c2ccnn4cc(-c5cnn(C)c5)cc24)C3)C1",
    "IC50": "> 10000 nM"
  },
  {
    "COMPOUND": "COc1cc(-c2cc3c(N4CC5CCC(C4)N5C4COC4)ccnc3[nH]2)ccn1",
    "IC50": "> 1000 nM"
  }
]

// query IC50 value for entry Cn1cc(-c2cc3c(N4CC5CCC(C4)N5[C@H]4CC[C@@H]4O)ccnn3c2)cn1 (racemic) > 10000 nM

// query IC50 value for entry CO[C@H]1C[C@@H](N2C3CCC2CN(c2ccnn4cc(-c5cnn(C)c5)cc24)C3)C1 > 10000 nM

// query IC50 value for entry Cn1cc(-c2cc3c(N4CC5CCC(C4)N5[C@H]4C[C@@H](O)C4)ccnn3c2)cn1 > 10000 nM

###

Biological target: catalytic kinase (JH1) domain of human TYK2 (Homo sapiens)
Construct: recombinantly generated catalytic kinase (also known as JH1) domain of human JAK1, JAK2, JAK3 and TYK2
Sequence (P29597 897-1176 limits assumed): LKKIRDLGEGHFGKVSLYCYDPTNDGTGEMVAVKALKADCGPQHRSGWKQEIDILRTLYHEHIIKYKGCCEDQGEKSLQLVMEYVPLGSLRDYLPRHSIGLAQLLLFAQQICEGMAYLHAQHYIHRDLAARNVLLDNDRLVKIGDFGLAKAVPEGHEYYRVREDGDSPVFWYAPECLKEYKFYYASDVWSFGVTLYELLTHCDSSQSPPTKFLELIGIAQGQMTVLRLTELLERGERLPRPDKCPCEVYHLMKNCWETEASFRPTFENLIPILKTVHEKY
Test: ADP-Glo kinase assay, TYK2 kinase domain
Assay type: biochemical
Measured pIC50 values are reported for all entries that follow.
Quick note: pIC50 means taking -log10 of the concentration in moles per liter.

Use these answered entries as a reference point.
[
  {
    "MOLECULE": "CO[C@H]1CC[C@@H]1N1C2CCC1CN(c1ccnn3cc(-c4cnn(C)c4)cc13)C2 (racemic)",
    "MEASURED": 6.13
  },
  {
    "MOLECULE": "COc1cc(-c2cc3c(N4CC5CCC(C4)N5[C@H]4C[C@@H](C#N)C4)ccnc3[nH]2)ccn1",
    "MEASURED": 7.67
  },
  {
    "MOLECULE": "Cn1cc(-c2nc3c(N4CC5CCC(C4)N5C4COC4)ccnc3[nH]2)cn1",
    "MEASURED": 7.37
  }
]

Continue with the molecule presented below.
// query pIC50 value for entry Cn1cc(-c2cn3nccc(N4CC5CCC(C4)N5[C@H]4C[C@H](C#N)C4)c3n2)cn1 8.42

###

Molecular target: catalytic kinase (JH1) domain of human JAK3 (Homo sapiens, UniProt P52333)
Construct: Catalytic activities of recombinant JAK2, JAK3 and TYK2 kinase domain
Assay: ADP-Glo kinase assay, JAK3 kinase domain
Assay type: biochemical
Conditions: 0.3 nM recombinant JAK3 kinase domain, 50 μM JAK3-974 peptide, 4 μM ATP, 100 minutes; read-out: JAK3 biochem IC50 (nM) Mean
Counter-ions that a name gives are not always drawn.
Measured IC50 values are reported for all entries that follow.

Use these answered entries as a reference point.
[
  {
    "COMPOUND": "Cn1cc(-c2nc3c(N4CC5CCC(C4)N5[C@H]4CC[C@H]4O)ccnc3[nH]2)cn1 (racemic)",
    "MEASURED": "> 10000 nM"
  },
  {
    "COMPOUND": "Cn1cc(-c2cc3c(N4CC5CCC(C4)N5[C@H]4C[C@H](O)C4)ccnn3c2)cn1",
    "MEASURED": "> 10000 nM"
  },
  {
    "COMPOUND": "c1cc(-c2cc3c(N4CC5CCC(C4)N5C4COC4)ccnn3c2)cnn1",
    "MEASURED": "> 10000 nM"
  },
  {
    "COMPOUND": "Cn1cc(-c2cc3c(N4CC5CCC(C4)N5C4CC(O)(C(F)(F)F)C4)ccnn3c2)cn1 (stereo not shown)",
    "MEASURED": "> 10000 nM"
  },
  {
    "COMPOUND": "Cn1cc(-c2nc3c(N4CC5CCC(C4)N5C4CNC4)ccnc3[nH]2)cn1 [Example 11, hydrochloride]",
    "MEASURED": "> 5000 nM"
  }
]

// query IC50 value for entry CO[C@H]1C[C@@H](N2C3CCC2CN(c2ccnc4[nH]c(-c5cnn(C)c5)nc24)C3)C1 > 10000 nM

// query IC50 value for entry Cn1cc(-c2cc3c(N4CC5CCC(C4)N5C4CC(O)C4)ccnn3c2)cn1 (stereo not shown) > 10000 nM
